B1: GMCL1 (parent)
chain: RPDTGDDAAGHGFCYCAGSHKRKR

Variants of: B1
ASSAY_REMARKS: protein stability index of a GFP-peptide fusion (GPS, HEK-293T) (PSI 1-6); higher = more stable;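 further: lentivirally expressed fusions sorted by FACS into six bins by GFP to DsRed ratio, PSI derived from sequencing read proportions per bin multiplied by bin number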
MEASUREMENT_PARAMETERS: c terminus: a fixed tail appended
QUANTITY_NAME: protein stability index
// return just the number, without any unit appended

-- ask Item under review: K23W . Reported protein stability index?
-- reply 1.95

-- ask Item under review: R24H . Reported protein stability index?
-- reply 4.13

-- ask Item under review: D7V . Reported protein stability index?
-- reply 3.16

-- ask Item under review: R1P . Reported protein stability index?
-- reply 2.71

-- ask Item under review: K21G . Reported protein stability index?
-- reply 2.39

-- ask Item under review: D3N . Reported protein stability index?
-- reply 3.31

-- ask Item under review: R1V . Reported protein stability index?
-- reply 2.5

-- ask Item under review: D6R . Reported protein stability index?
-- reply 3.23

-- ask Item under review: R22D . Reported protein stability index?
-- reply 3.55

-- ask Item under review: S19L . Reported protein stability index?
-- reply 2.82

-- ask Item under review: F13W . Reported protein stability index?
-- reply 3.45

-- ask Item under review: A17R . Reported protein stability index?
-- reply 2.9

-- ask Item under review: G5C . Reported protein stability index?
-- reply 3.63

-- ask Item under review: A8Q . Reported protein stability index?
-- reply 3.16

-- ask Item under review: D3V . Reported protein stability index?
-- reply 3.91

-- ask Item under review: C16M . Reported protein stability index?
-- reply 4.17

-- ask Item under review: G18V . Reported protein stability index?
-- reply 2.75

-- ask Item under review: D3M . Reported protein stability index?
-- reply 2.3

-- ask Item under review: P2M . Reported protein stability index?
-- reply 3.05

-- ask Item under review: D6W . Reported protein stability index?
-- reply 2.99

-- ask Item under review: G12C . Reported protein stability index?
-- reply 2.45

-- ask Item under review: Y15S . Reported protein stability index?
-- reply 2.77

-- ask Item under review: A9D . Reported protein stability index?
-- reply 3.81

-- ask Item under review: T4I . Reported protein stability index?
-- reply 3.06

-- ask Item under review: G10T . Reported protein stability index?
-- reply 3.18

-- ask Item under review: D6P . Reported protein stability index?
-- reply 2.96

-- ask Item under review: G12S . Reported protein stability index?
-- reply 2.88

-- ask Item under review: D7A . Reported protein stability index?
-- reply 3.46

-- ask Item under review: T4L . Reported protein stability index?
-- reply 2.81

-- ask Item under review: A8M . Reported protein stability index?
-- reply 2.85

-- ask Item under review: R24E . Reported protein stability index?
-- reply 3.64

-- ask Item under review: K21P . Reported protein stability index?
-- reply 3.03

-- ask Item under review: T4N . Reported protein stability index?
-- reply 2.97

-- ask Item under review: D3G . Reported protein stability index?
-- reply 2.19

-- ask Item under review: R1Y . Reported protein stability index?
-- reply 2

-- ask Item under review: P2D . Reported protein stability index?
-- reply 3.46

-- ask Item under review: S19A . Reported protein stability index?
-- reply 3.62

-- ask Item under review: G12N . Reported protein stability index?
-- reply 3.14

-- ask Item under review: C16A . Reported protein stability index?
-- reply 4.94

-- ask Item under review: C14K . Reported protein stability index?
-- reply 4.98

-- ask Item under review: R22E . Reported protein stability index?
-- reply 3.56

-- ask Item under review: G18S . Reported protein stability index?
-- reply 3.36

-- ask Item under review: R22K . Reported protein stability index?
-- reply 3.08

-- ask Item under review: F13K . Reported protein stability index?
-- reply 3.35

-- ask Item under review: G18W . Reported protein stability index?
-- reply 2.09

-- ask Item under review: G5H . Reported protein stability index?
-- reply 2.48
